Tmax for assorted molecules
- experimental-protocol: PK Study of Compounds in Mice
- Assay type: in vivo, Female ICR mice
- study-conditions: female, ICR, mouse, whole blood, PO 10 mg/kg (n=3), mean
Use h as the unit, but write only the number.

stdin: Query (molecule): CC1OCCCn2c(c3c4cc(ccc42)-c2csc(n2)CC(NC(=O)C2C(C)C2C)C(=O)N2NC(C(=O)OCC(C)(C)C3)C3CC2C3)-c2cc(N3CCN(C)CC3)cnc21 (centres unmarked) ; field requested: Tmax
stdout: 4

Then this molecule:
stdin: Using the record for CC1OCCCn2c(c3c4cc(ccc42)-c2csc(n2)CC(NC(=O)C2C(C)C2C)C(=O)N2NC(C(=O)OCC(C)(C)C3)C3CC2C3)-c2cc(N3CCN(C4COC4)CC3)cnc21 (centres unmarked) , report its Tmax.
stdout: 2

---

- experimental-protocol: PK Study of Compounds in Rats
- Assay type: in vivo, Male SD rats
- study-conditions: male, SD, rat, whole blood, IV 1 mg/kg (n=3), mean
endpoint-label: clearance (mL/min/kg)
Respond with the bare value in mL/min/kg.

stdin: Reported clearance, compound CC1OCCCn2c(c3c4cc(ccc42)-c2csc(n2)CC(NC(=O)C2C(C)C2C)C(=O)N2NC(C(=O)OCC(C)(C)C3)C3CC2C3)-c2cc(N3CCN(C4COC4)CC3)cnc21 (stereo not drawn) [Example 198] : ____
stdout: 2.22

stdin: Given the entry CC1OCCCn2c(c3c4cc(ccc42)-c2csc(n2)CC(NC(=O)C2C(C)C2C)C(=O)N2NC(C(=O)OCC(C)(C)C3)C3CC2C3)-c2cc(N3CCN(C)CC3)cnc21 (stereo not drawn) [Example 186] , report its measured clearance.
stdout: 1.93

Attention now turns to another entry.
stdin: clearance lookup needed for CC1OCCCn2c(c3c4cc(ccc42)-c2csc(n2)CC(NC(=O)C2C4COCC42)C(=O)N2NC(C(=O)OCC(C)(C)C3)C3CC2C3)-c2cc(N3CCN(C)CC3)cnc21 (stereo not drawn) [Example 192] , thanks.
stdout: 3.59

---

- experimental-protocol: PK Study of Compounds in Rats
- Format: in vivo, Male SD rats
- study-conditions: male, SD, rat, whole blood, PO 10 mg/kg (n=3), mean, read-out: Tmax
endpoint-label: Tmax
Provide the measurement as a number trailed by its unit.

stdin: Value lookup for Tmax; key = CC1OCCCn2c(c3c4cc(ccc42)-c2csc(n2)CC(NC(=O)C2C(C)C2C)C(=O)N2NC(C(=O)OCC(C)(C)C3)C3CC2C3)-c2cc(N3CCN(C4COC4)CC3)cnc21 (stereo not drawn)
stdout: 3.33 h

stdin: Fill blank: measured Tmax of the compound CC1OCCCn2c(c3c4cc(ccc42)-c2csc(n2)CC(NC(=O)C2C(C)C2C)C(=O)N2NC(C(=O)OCC(C)(C)C3)C3CC2C3)-c2cc(N3CCN(C)CC3)cnc21 (stereo not drawn) is ____.
stdout: 4 h

// moving on: another record for Tmax
stdin: Give the measured Tmax of CC1OCCCn2c(c3c4cc(ccc42)-c2csc(n2)CC(NC(=O)C2C4COCC42)C(=O)N2NC(C(=O)OCC(C)(C)C3)C3CC2C3)-c2cc(N3CCN(C)CC3)cnc21 (stereo not drawn) .
stdout: 3.33 h

---

- tested-system: KRAS G12D-cRAF (Homo sapiens, UniProt P01116, G12D)
- Construct: expressed in transfected cells
- Sequence (P01116 1-188 isoform P01116-2 G12D): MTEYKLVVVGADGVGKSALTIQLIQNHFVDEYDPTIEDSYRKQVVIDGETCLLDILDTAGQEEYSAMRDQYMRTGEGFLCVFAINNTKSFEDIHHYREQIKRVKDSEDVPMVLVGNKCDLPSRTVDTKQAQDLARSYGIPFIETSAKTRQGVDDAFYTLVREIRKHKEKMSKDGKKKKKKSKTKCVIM
- experimental-protocol: Cellular KRAS G12D-cRAF Binding Inhibition Assay (NanoBRET, AD293 stable cells)
- Type: cell-based
- study-conditions: 3 h incubation, read-out: NanoBRET KRAS G12D
- Method: NanoLuc® luciferase was used as the energy donor, and NanoBRET™ 618 fluorescent ligand labeled with the HaloTag® protein was used as the energy acceptor to detect protein-protein interactions in living cells. […] The luminescence data were calculated and converted into inhibition percent. The inhibition percent of KRAS G12D-cRAF binding was calculated according to the following formula: Inhibition Percent = (MaxValue−MeasuredValue)/(MaxValue−Blank) × 100% [formula] […]
endpoint-label: IC50 (nM)
Provide only the numeric value, understood in nM.

stdin: Report IC50 for CC1OCCCn2c(c3c4cc(ccc42)-c2csc(n2)CC(NC(=O)C2CC2C(F)F)C(=O)N2CCCC(N2)C(=O)OCC(C)(C)C3)-c2cc(N3CC(C)N(C)C(C)C3)cnc21 (centres unmarked) [Example 142] please.
stdout: 1.88

---
stdin: I am curious: what IC50 value has been reported for CC1OCCCn2c(c3c4cc(ccc42)-c2csc(n2)CC(NC(=O)C2CC2C(F)F)C(=O)N2CCCC(N2)C(=O)OCC(C)(C)C3)-c2cc(N3CC(N4CCN(C)CC4)C3)cnc21 (centres unmarked) ?
stdout: 4.25

stdin: Entry CC1OCCCn2c(c3c4cc(ccc42)-c2csc(n2)CC(NC(=O)C24CC(C)(C2)C4)C(=O)N2CCCC(N2)C(=O)OCC(C)(C)C3)-c2cc(N3CCOCC3)cnc21 (centres unmarked) has what IC50?
stdout: 9.57

stdin: Tell me the measured IC50 of CCN1CCN(c2cnc3c(c2)-c2c4c5cc(ccc5n2CCCOC3C)-c2csc(n2)CC(NC(=O)C2CC2C(F)F)C(=O)N2CCCC(N2)C(=O)OCC(C)(C)C4)CC1 (centres unmarked) , please.
stdout: 2.76

stdin: Requested read-out: IC50. Entry: COCCN1CCN(c2cnc3c(c2)-c2c4c5cc(ccc5n2CCCOC3C)-c2csc(n2)CC(NC(=O)C2CC2C)C(=O)N2CCCC(N2)C(=O)OCC(C)(C)C4)CC1 (centres unmarked)
stdout: 6.6
